- system.name: T1, human PD-1-His protein (human, UniProt Q15116 25-167, limits assumed)
- T1 construct: also called huPD-1; not shown: His tag
- assay.overview: SPR Biacore
assay.endpoint: kon (M⁻¹ s⁻¹)
// units = M⁻¹ s⁻¹; emit number, no label

Query string: Retrieve kon measured for HumAb703-22 (antibody, human IgG1, kappa, L234A L235A, V domains shown, humanized mAb703; also called HurnAb703-22) VH: EVQLQESGPGLVKPSETLSLTCAVSGYSISTGYYWNWIRQPPGKGLEWIGYMSYDGNNNYNPSLKNRITISRDTSKNQFSLKLSSVTAADTAVYYCARDRGTTILGGTMDYWGQGTTVTVSS VL: SIVMTQSPSSLSASVGDRVTITCKASQSVSNDVAWYQQKPGKSPKLLIYYAFYRYTGVPDRFTGSGYGTDFTLTISSLQPEDFATYFCQQDYSSPWTFGGGTKVEIKR and print it.
Result string: 229000

Query string: Retrieve kon measured for HumAb703-18 (antibody, human IgG1, kappa, L234A L235A, V domains shown, humanized mAb703) VH: EVQLQESGPGLVKPSETLSLTCAVSGYSISTGYYWNWIRQPPGKGLEWMGYMSYDGNNNYNPSLKNRITISRDTSKNQFSLKLSSVTAADTAVYYCARDRGTTILGGTMDYWGQGTTVTVSS VL: DIQMTQSPSSLSASVGDRVTITCKASQSVSNDVAWYQQKPGKSPKLLIYYAFYRYTGVPDRFSGSGYGTDFTLTISSLQPEDFATYFCQQDYSSPWTFGGGTKVEIKR and print it.
Result string: 65700

Query string: Retrieve kon measured for mAb703c (antibody, V domains shown) VH: DVQLQESGPGLVKPSQSLSLTCSVTGYSITTGYYWNWIRQFPGNKLEWMGYMSYDGNNNYNPSLKNRISITRDTSKNQFLLRLNSVTTEDTATYFCARDRGTTILGGTMDYWGQGTSVTVS VL: SIVMTQTPKFLFVSAGDRVTIACKASQSVSNDVAWYQQKPGQSPKLLIYYAFYRYTGVPDRFTGSGYGTDFTFTISTVQAEDLAVYFCQQDYSSPWTFGGGTKLEIK and print it.
Result string: 359000

Query string: Retrieve kon measured for HumAb703-12 (antibody, human IgG1, kappa, L234A L235A, V domains shown, humanized mAb703) VH: EVQLQESGPGLVKPSETLSLTCAVSGYSISTGYYWNWIRQPPGKGLEWIGYMSYDGNNNYNPSLKNRITISRDTSKNQFSLKLSSVTAADTAVYYCARDRGTTILGGTMDYWGQGTTVTVSS VL: DIQMTQSPSSLSASVGDRVTITCKASQSVSNDVAWYQQKPGKAPKLLIYYAFYRYTGVPDRFSGSGYGTDFTLTISSLQPEDFATYYCQQDYSSPWTFGGGTKVEIKR and print it.
Result string: 177000

Query string: Retrieve kon measured for HumAb703-11 (antibody, human IgG1, kappa, L234A L235A, V domains shown, humanized mAb703) VH: EVQLQESGPGLVKPSETLSLTCAVSGYSISTGYYWNWIRQPPGKGLEWIGYMSYDGNNNYNPSLKNRVTISRDTSKNQFSLKLSSVTAADTAVYYCARDRGTTILGGTMDYWGQGTTVTVSS VL: DIQMTQSPSSLSASVGDRVTITCKASQSVSNDVAWYQQKPGKAPKLLIYYAFYRYTGVPDRFSGSGYGTDFTLTISSLQPEDFATYYCQQDYSSPWTFGGGTKVEIKR and print it.
Result string: 187000

Query string: Retrieve kon measured for HumAb703-13 (antibody, human IgG1, kappa, L234A L235A, V domains shown, humanized mAb703) VH: EVQLQESGPGLVKPSETLSLTCAVSGYSISTGYYWNWIRQPPGKGLEWMGYMSYDGNNNYNPSLKNRITISRDTSKNQFSLKLSSVTAADTAVYYCARDRGTTILGGTMDYWGQGTTVTVSS VL: DIQMTQSPSSLSASVGDRVTITCKASQSVSNDVAWYQQKPGKAPKLLIYYAFYRYTGVPDRFSGSGYGTDFTLTISSLQPEDFATYYCQQDYSSPWTFGGGTKVEIKR and print it.
Result string: 145000
